Target: T1, monkey TIM-3 extracellular domain protein with hFc tag (cTIM-3-hFc) (monkey)
T1 construct: not shown: human IgG Fc fragment (hFc) of the pCpC vector
T1 chain: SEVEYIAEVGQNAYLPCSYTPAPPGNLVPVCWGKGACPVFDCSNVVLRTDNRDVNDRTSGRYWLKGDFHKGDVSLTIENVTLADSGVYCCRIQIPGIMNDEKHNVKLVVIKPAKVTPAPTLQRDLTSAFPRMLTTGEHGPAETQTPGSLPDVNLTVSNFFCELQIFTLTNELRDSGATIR
Experiment: ELISA, coated monkey TIM-3 ECD protein, 6.6667 nM antibody
Quantity Name: OD450
Number, no unit, nothing else.

Request: Input 134H3G6 fully human TIM-3 antibody (human IgG4, kappa) (antibody, V domains shown) VH: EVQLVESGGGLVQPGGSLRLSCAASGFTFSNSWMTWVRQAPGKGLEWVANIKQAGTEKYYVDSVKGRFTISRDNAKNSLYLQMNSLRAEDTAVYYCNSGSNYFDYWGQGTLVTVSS VL: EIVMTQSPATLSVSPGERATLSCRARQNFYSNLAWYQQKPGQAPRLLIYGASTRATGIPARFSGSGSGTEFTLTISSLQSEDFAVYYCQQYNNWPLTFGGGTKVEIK , output reported OD450.
Result: 3.19

Request: Look up and report measured OD450 for this entry: 34B6D8 fully human TIM-3 antibody (human IgG4, kappa) (antibody, V domains shown) VH: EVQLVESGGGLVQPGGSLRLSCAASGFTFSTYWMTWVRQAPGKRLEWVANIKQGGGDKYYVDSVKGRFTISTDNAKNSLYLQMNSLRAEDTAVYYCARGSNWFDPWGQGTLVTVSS VL: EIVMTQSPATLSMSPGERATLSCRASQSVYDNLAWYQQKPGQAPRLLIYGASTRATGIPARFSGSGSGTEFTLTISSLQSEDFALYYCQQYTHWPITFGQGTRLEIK
Result: 3.39

Request: Look up OD450 of 57F4E5 fully human TIM-3 antibody (human IgG4, kappa) (antibody, V domains shown) VH: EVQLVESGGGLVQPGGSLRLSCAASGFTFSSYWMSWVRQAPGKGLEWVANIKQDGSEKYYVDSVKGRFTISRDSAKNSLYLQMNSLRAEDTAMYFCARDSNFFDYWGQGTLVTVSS VL: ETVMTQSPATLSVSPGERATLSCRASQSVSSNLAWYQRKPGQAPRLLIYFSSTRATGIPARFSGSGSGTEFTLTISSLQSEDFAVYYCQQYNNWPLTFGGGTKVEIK and report it.
Result: 3.29
